Values from patent US9708325B2

Test: LYSA solubility
Format: physicochemical
Settings: 0.05 M phosphate buffer, pH 6.5, aqueous buffer, thermodynamic from solid
We begin with a simple list: items and their reported solubility thermodynamic.

Solved entries (count: 2):
[
  {
    "compound": "CCCS(=N)(=O)c1nc(N)c2[nH]c(=O)n(Cc3cncnc3)c2n1 (stereo not drawn) [Example 43]",
    "result-value": "> 465 µg/mL"
  },
  {
    "compound": "CCCS(=N)(=O)c1nc(N)c2[nH]c(=O)n(Cc3ccc(C(=O)O)cc3)c2n1 (stereo not drawn) [Example 39]",
    "result-value": "> 520 µg/mL"
  }
]

Kindly review the next compound as well.
Indicate its recorded solubility thermodynamic; the compound in question is CS(=N)(=O)c1nc(N)c2[nH]c(=O)n(Cc3ccccn3)c2n1 (stereo not drawn) [Example 19] > 428 µg/mL

* * *

// reported EC50 for each item listed
Target: UniProt:Q9NYK1
Sequence (Q9NYK1 27-1049): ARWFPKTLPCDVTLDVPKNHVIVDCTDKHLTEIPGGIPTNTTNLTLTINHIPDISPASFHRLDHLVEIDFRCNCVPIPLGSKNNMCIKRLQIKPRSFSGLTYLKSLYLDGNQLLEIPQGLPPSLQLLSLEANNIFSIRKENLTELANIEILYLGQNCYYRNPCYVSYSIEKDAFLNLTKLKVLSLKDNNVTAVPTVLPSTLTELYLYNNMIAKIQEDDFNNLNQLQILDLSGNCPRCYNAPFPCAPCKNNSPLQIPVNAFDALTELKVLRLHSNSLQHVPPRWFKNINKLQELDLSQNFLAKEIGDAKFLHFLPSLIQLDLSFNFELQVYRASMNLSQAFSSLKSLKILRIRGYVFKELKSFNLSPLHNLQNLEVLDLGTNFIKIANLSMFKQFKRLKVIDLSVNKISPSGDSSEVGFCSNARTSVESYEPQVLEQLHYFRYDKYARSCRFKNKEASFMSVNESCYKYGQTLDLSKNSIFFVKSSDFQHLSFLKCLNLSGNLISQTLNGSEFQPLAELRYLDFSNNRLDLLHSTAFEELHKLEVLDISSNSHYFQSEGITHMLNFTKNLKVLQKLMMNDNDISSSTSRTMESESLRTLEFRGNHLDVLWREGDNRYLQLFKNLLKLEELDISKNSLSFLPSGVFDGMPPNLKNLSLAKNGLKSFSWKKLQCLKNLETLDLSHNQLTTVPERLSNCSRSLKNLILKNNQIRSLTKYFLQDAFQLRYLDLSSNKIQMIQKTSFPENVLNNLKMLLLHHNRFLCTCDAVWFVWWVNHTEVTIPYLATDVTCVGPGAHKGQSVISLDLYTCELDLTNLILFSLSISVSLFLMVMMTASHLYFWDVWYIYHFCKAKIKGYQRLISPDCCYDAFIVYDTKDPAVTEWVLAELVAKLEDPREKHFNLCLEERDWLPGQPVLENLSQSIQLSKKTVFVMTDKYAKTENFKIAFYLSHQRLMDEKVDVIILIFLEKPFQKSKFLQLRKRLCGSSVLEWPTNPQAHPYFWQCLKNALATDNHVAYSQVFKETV
Assay: HEK-Blue-hTLR7 cells assay (SEAP reporter)
Type: cell-based
Conditions: 20 hrs, read-out: HEK-Blue-hTLR7 (EC50 (μM))
Only the number, expressed in µM, is required.

[
  {
    "compound": "CCCS(=N)(=O)c1nc(N)c2[nH]c(=O)n(Cc3ccc(F)c(F)c3)c2n1 (stereo not drawn)",
    "EC50, µM": 0.036
  },
  {
    "compound": "CCCS(=N)(=O)c1nc(N)c2[nH]c(=O)n(Cc3ccc(Cl)c(Cl)c3)c2n1 (stereo not drawn)",
    "EC50, µM": 0.021
  }
]

Tell me EC50 reported for CCCS(=N)(=O)c1nc(N)c2[nH]c(=O)n(Cc3ccc(C)nc3)c2n1 (stereo not drawn) 0.03
